Values were extracted from PubChem BioAssay (NCATS).

system: HACAT; assay: qHTS assay to identify novel small-molecules to repurpose for Merkel cell carcinoma treatment (AID 1296009); details: MCC and control cell lines, CellTiter-Glo viability, 72 h; at 44.8 µM (top of the series) unless noted; note: nearly all actives have a fitted effect of over 60% in size
Inconclusive results are not listed. The source made the active and inactive calls. Calls come from the whole dose curve; as a rule, active = well fitted inhibition curve with a large enough effect; inconclusive = small, poorly fitted or top-dose-only effect; inactive = flat fitted curve, though single readings scatter.
reportedProperty: outcome

* Cc1cccc(NC(=O)N[C@H]2CN(C)c3ccccc3C(c3ccccc3)=N2)c1 | inactive
* CCC(C)(O)C1(C(=O)O)COC(=O)C1 (stereo not drawn) | inactive [at 92 µM]
* CCCCOC(=O)c1ccnc2cc(C(OCCN3CCCCC3)c3ccccc3Cl)sc12 (stereo not drawn) | inactive
* Cc1cccc(NC(=O)NC2N=C(c3ccccc3)c3ccccc3N(CC(=O)c3ccccc3C)C2=O)c1 (stereo not drawn) | inactive
* Cc1ccc(-n2nccn2)c(C(=O)N2CCN(c3nc4cc(Cl)ccc4o3)CCC2C)c1 (stereo not drawn) | inactive
* CCC(C)C1NC(=O)C(C(C)=O)=C1O (stereo not drawn) | inactive [at 92 µM]
* CN1CCCCC1Cn1cc(C(=O)c2cc([N+](=O)[O-])ccc2I)c2ccccc21 (stereo not drawn) | inactive

###

system: Hek293T; assay: Primary qHTS to identify gynecologic anti-cancer compounds using libraries of approved drugs and bioactive compounds (AID 1345084); conditions: Gynecologic cancer cell panel viability, ATPlite luminescence, 48 h, control line for the selectivity index; series mostly up to 57.5 µM; note: nearly all actives have a fitted effect of over 55% in size
Inconclusive results are not listed. Activity calls are given as the source filed them. The call rests on the fitted dose curve; in most records, active means well fitted cell-killing curve with a large enough effect; inconclusive means small, poorly fitted or top-dose-only effect, or effect the other way; inactive means flat fitted curve, though single readings scatter.
Outcomes: active, inactive

- C#C[C@]1(O)CC[C@H]2[C@@H]3CC[C@H]4Cc5nc6nc7ccccc7n6cc5C[C@]4(C)[C@H]3CC[C@@]21C: inactive
- C=C(CO)C(=O)O[C@H]1CC(=C)[C@@H]2C[C@H](O)C(=C)[C@@H]2[C@H]2OC(=O)C(=C)[C@@H]21: inactive
- COC(=O)[C@]12CCCC(C)(C)C1CCc1cc(C(C)C)c(O)c(O)c12 (stereo partly specified): inactive
- COc1cc(O)c2c(c1)CCC[C@@H](O)[C@H](O)C(=O)/C=C\C[C@H](C)OC2=O: active
- CCC1CC2CN3CCc4c([nH]c5ccccc45)C(C(=O)OC)(C2)C13 (stereo unspecified): inactive
- CCCCOC(=O)c1ccnc2cc(C(OCCN3CCCCC3)c3ccccc3Cl)sc12 (stereo unspecified): inactive

###

We begin with a simple list: items and their reported activation.
target: Thyrotropin-releasing hormone receptor (Homo sapiens) (UniProt P34981); assay: qHTS for Small Molecule Agonists and Allosteric Enhancers of Human TRH Receptor: Validation Screen for Agonists (AID 493127); conditions: TRH receptor agonist cell assay; at 2 µM; stronger effect = higher value;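 note: intracellular calcium rise by fluo-8 fluorescence before TRH EC20 addition; 0% is about no effect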
Sequence (P34981 whole entry, looked up): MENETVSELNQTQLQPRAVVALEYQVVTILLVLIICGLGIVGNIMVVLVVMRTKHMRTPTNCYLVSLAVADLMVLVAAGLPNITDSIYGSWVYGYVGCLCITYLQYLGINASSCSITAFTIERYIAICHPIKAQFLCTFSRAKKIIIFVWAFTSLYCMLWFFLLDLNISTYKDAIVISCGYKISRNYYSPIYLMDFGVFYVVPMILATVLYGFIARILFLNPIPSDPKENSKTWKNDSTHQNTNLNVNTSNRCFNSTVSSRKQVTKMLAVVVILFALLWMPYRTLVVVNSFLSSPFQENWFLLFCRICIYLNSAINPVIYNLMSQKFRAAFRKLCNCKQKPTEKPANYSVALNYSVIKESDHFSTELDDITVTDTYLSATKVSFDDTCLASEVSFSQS
reportedProperty: activation (%)

• CC(=O)OCC1=C(C(=O)[O-])N2C(=O)[C@@H](NC(=O)CCC[C@@H](N)C(=O)[O-])[C@H]2SC1.[Zn+2] = 1.25
• COc1ccc(CCN)cc1O = 1.06
• COC(=O)c1cc2c(cn1)[nH]c1ccccc12 = 1.44
• COc1ccc(-n2nc(C(F)(F)F)cc2-c2ccc(Cl)cc2)cc1 = -9.62

###

system: HEK293; experiment: Cytotoxic Profiling of Annotated Libraries Using Quantitative High-Throughput Screening (AID 1296008); conditions: Five cell lines viability, CellTiter-Glo ATP luminescence, 48-72 h; stronger effect = lower value; note: % is set by controls: 0 for no effect and ±100 for the full control effect; nearly all actives have a fitted effect of over 60% in size
Records with an inconclusive call do not appear. Activity calls are given as the source filed them. Calls follow the shape of the dose curve; as a rule, active = well fitted inhibition curve with a large enough effect; inconclusive = small, poorly fitted or top-dose-only effect; inactive = flat fitted curve, though single readings scatter.
reportedProperty: max response

- c1cncc(OC[C@@H]2CCN2)c1: 1.76% (inactive)
- CC1(C)C(=O)N(c2ccc(C#N)c(C(F)(F)F)c2)C(=O)N1CCCCO: -15.9% (inactive)
- C/C=C(/C)C1C=CC2CC(C)CC(C)C2C1/C(O)=C1\C(=O)NC(CC(C)(O)C(=O)O)C1=O (stereo unspecified): -1.39% (inactive)
- C[N@@+]1(CC2CC2)CC[C@]23c4c5ccc(O)c4O[C@H]2C(=O)CC[C@@]3(O)[C@H]1C5: 0.678% (inactive)
- C/C=C1/CN2CC[C@]34C(=Nc5ccc(OC)cc53)C2C[C@@H]1C4(CO)C(=O)OC (stereo partly specified): 4.62% (inactive)
- C=CCN1CC[C@]23c4c5ccc(O)c4O[C@H]2[C@@H](O)CC[C@@]3(O)[C@H]1C5: -13.2% (inactive)
